Origin of measurements: paper PMC10302868

- Assay Method Text: in vivo
- Details: male, Sprague-Dawley, rat, po, 10 mg/kg
Measurement Type: half-life (min)
Give just the number in min; leave the unit off.

Reported half-life ( C=C[C@]1(C)C[C@@H](OC(=O)COc2ccc3c(c2F)B(O)OC3)[C@]2(C)[C@H](C)CC[C@]3(CCC(=O)[C@H]32)[C@@H](C)[C@@H]1O ) = 143

---

- Assay Method Text: in vivo
- Details: male, Sprague-Dawley, rat
Measurement Type: bioavailability (%)
Give just the number in %; leave the unit off.

Reported bioavailability ( C=C[C@]1(C)C[C@@H](OC(=O)COc2ccc3c(c2F)B(O)OC3)[C@]2(C)[C@H](C)CC[C@]3(CCC(=O)[C@H]32)[C@@H](C)[C@@H]1O ) = 19.2
